ASSAYED_TARGET: Plasmin (Homo sapiens, UniProt P00747)
Construct: Human plasmin is purchased; purchased Boehringer Mannheim, Indianapolis, Ind
Sequence (P00747 581-810 limits assumed): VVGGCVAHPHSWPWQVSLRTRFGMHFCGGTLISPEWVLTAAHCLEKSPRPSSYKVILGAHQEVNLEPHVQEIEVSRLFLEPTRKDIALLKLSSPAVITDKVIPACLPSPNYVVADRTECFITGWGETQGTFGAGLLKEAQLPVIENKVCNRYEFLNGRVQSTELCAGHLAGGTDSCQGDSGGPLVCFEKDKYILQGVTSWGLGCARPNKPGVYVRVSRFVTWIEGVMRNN
Sequence (P00747 97-580 partner limits assumed): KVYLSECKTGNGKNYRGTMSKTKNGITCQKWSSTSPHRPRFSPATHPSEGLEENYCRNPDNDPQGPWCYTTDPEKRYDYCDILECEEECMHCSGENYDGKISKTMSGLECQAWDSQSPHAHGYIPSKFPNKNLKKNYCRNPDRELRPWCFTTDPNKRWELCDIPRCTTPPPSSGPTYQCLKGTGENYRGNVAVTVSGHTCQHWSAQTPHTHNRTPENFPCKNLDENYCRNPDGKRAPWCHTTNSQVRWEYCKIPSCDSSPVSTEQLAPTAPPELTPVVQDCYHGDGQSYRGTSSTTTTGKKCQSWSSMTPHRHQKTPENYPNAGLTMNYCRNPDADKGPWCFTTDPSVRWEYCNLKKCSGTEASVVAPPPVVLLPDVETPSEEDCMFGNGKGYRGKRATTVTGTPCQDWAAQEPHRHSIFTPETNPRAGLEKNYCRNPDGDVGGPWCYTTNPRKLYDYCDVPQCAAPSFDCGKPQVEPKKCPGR
ASSAY_SUMMARY: Serine protease selectivity, chromogenic substrate (Kass), plasmin
Assay type: biochemical
STUDY_CONDITIONS: substrate H-D-Val-Leu-Lys-p-nitroanilide
Method: The assay is carried out by mixing 50 μL buffer (0.03M Tris, 0.15M NaCl, pH 7.4) with 25 μL of bovine thrombin or human thrombin solution (0.21 mg/mL of thrombostat bovine thrombin, Parke-Davis, or purified human thrombin, Enzyme Research Laboratories, South Bend, Ind., at about 8 NIH units/mL, in the same buffer) and 25 μL of test compound in a solvent (in 50% aqueous methanol, v:v). […]
REPORTED_METRIC: Enzyme Kass, Plasmin (L/mol × 10^6)

>  <COMPOUND>
CCS(=O)(=O)N[C@H](C(=O)N1C[C@@H](Oc2ccccc2)C[C@H]1C(=O)N[C@H](C=O)CCCNC(=N)N)c1ccccc1.Cl (relative stereo) [Example 16, EtSO2 -L-Phg-Pro(4-cis-phenoxy)-ArgH.HCl]

>  <READOUT_UNITS>
L/mol × 10^6

>  <REPORTED>
4.8

$$$$

P = Cl.Cl.N=C(N)NCCC[C@H](C=O)NC(=O)[C@@H]1C[C@H](Oc2ccccc2)CN1C(=O)[C@H]1CCCCN1 (relative stereo)
Q = CC(=O)Nc1cccc(O[C@H]2C[C@@H](C(=O)N[C@H](C=O)CCCNC(=N)N)N(C(=O)[C@H]3CCCCN3)C2)c1.Cl.Cl (relative stereo)
Lab note: record which item had the higher Enzyme Kass, Plasmin, P or Q . Output the label that corresponds to your choice.
P
(P: 2.9 L/mol × 10^6, Q: 1.1 L/mol × 10^6)
